Biological target: Protein kinase C gamma type (Homo sapiens);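 note: values are mean percent inhibition of PKC gamma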
Conditions: at 0.1 µM
Measurement Kind: inhibition (%)
Report only the number, with the unit % understood.

Q: Returns the measured inhibition for the input compound. Input: `CCCN(CCS(C)(=O)=O)Cc1ccc(-c2ccc3ncnc(Nc4ccc(OCc5cccc(F)c5)c(Cl)c4)c3c2)o1`
Result: 1.25

Q: // repeat for `COc1cc(N2CCN(C(C)C)CC2)ccc1Nc1nc(Nc2ccc(F)cc2C(N)=O)c2cc[nH]c2n1` and report
Result: 3.65

Q: // repeat for `Nc1ncc(-c2cccc(S(N)(=O)=O)c2)c2scc(-c3ccc(F)c(Cl)c3)c12` and report
Result: -0.92

###

Target: Serine/threonine-protein kinase Nek2 (Homo sapiens);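 note: reported values are mean percent inhibition of NEK2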
Sequence (whole entry): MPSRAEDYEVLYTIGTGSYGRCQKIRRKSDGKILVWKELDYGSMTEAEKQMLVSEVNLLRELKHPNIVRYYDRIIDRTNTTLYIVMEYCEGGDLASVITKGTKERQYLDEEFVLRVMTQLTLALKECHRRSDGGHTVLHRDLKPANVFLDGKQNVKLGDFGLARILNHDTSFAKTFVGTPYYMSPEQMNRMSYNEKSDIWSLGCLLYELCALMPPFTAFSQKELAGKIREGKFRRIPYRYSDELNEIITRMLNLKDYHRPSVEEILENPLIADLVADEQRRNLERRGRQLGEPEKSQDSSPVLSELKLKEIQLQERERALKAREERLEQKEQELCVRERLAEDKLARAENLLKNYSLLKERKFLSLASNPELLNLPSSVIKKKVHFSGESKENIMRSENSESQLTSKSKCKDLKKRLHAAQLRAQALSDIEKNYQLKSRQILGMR
Settings: at 1 µM
Measurement Kind: inhibition (%)
Report only the number, with the unit % understood.

Q: Returns the measured inhibition for the input compound. Input: `CC(C)(CO)CNC(=O)c1ccc2c(c1)/C(=N/Nc1ccc(S(N)(=O)=O)cc1)C(=O)N2`
Result: 0.85

Q: // repeat for `CS(=O)(=O)CCNCc1coc(-c2ccc3ncnc(Nc4ccc(OCc5ccccc5)cc4)c3c2)c1` and report
Result: 2.21

Q: // repeat for `O=C(Nc1n[nH]c2cc(-c3ccc(F)cc3)ccc12)C1CC1` and report
Result: 4.67

Q: // repeat for `CN1CCC(n2cnc(-c3ccc(F)cc3)c2-c2ccnc(N)n2)CC1` and report
Result: 2.64

Q: // repeat for `Nc1nc(-c2ccc(F)cc2)c(-c2ccc3ncccc3n2)s1` and report
Result: 6.71

Q: // repeat for `O=S(=O)(CCNCc1ccc(-c2ccc3ncnc(Nc4ccc(OCc5cccc(F)c5)c(Cl)c4)c3c2)o1)c1ccccc1` and report
Result: 7.03

Q: // repeat for `CCN(CC)S(=O)(=O)c1ccc(OC)c(Nc2ncc(-c3ccccc3)o2)c1` and report
Result: -0.71

Q: // repeat for `Cc1ccc(O)cc1Nc1ccnc2cc(-c3ccccn3)ccc12` and report
Result: 4.75

Q: // repeat for `FC(F)(F)c1cccc(-c2nn3ncccc3c2-c2ccnc(Nc3ccc4c(c3)OCCO4)n2)c1` and report
Result: 3.89
